System Under Test: AChE (EC 3.1.1.7) from electric eel (Electrophorus electricus, UniProt O42275)
Construct: purchased Sigma-Aldrich C3389
Sequence (O42275 24-633): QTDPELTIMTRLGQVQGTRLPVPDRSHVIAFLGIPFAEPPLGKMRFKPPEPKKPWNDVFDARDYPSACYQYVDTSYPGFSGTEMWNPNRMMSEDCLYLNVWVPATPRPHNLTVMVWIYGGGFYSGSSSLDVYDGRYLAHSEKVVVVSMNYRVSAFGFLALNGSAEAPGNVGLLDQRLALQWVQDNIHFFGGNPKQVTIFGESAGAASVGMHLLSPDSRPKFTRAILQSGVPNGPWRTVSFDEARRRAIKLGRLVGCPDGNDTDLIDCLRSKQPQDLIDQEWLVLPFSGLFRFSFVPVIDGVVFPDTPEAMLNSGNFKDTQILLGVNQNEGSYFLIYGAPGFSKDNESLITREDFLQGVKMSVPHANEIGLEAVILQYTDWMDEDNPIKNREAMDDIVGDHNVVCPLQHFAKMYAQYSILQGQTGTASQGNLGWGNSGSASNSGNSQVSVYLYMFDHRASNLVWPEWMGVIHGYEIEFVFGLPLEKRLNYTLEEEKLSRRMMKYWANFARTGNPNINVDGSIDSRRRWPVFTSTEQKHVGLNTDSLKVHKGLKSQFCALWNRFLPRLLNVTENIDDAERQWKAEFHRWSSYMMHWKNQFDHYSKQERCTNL
Test Method Notes: biochemical
Applied Conditions: eqBuChE IC50 / eeAChE IC50
Reported Property: Selectivity index (SI) = BuChE IC50/AChE IC50
Returns: the value as a bare number; no unit string appended.

Structure String: O=C(/C=C/c1cccc(Cl)c1)NCCCCCCNc1c2c(nc3ccccc13)CCCC2
Result Number: 0.6
--
Structure String: O=C(/C=C/c1ccc([N+](=O)[O-])cc1)NCCCCCCNc1c2c(nc3ccccc13)CCCC2
Result Number: 2.4
--
Structure String: N#Cc1cccc(/C=C/C(=O)NCCCCCCNc2c3c(nc4ccccc24)CCCC3)c1
Result Number: 13.4
--
Structure String: O=C(/C=C/c1ccc(C(F)(F)F)cc1)NCCCCCCNc1c2c(nc3ccccc13)CCCC2
Result Number: 2.0
--
Structure String: O=C(/C=C/c1cccc(O)c1)NCCCCCCNc1c2c(nc3ccccc13)CCCC2
Result Number: 3.9

Ask | Respond only with Selectivity index (SI) = BuChE IC50/AChE IC50 recorded for O=C(/C=C/c1ccccc1)NCCNc1c2c(nc3ccccc13)CCCC2
Reply | 0.2

Ask | Respond only with Selectivity index (SI) = BuChE IC50/AChE IC50 recorded for COc1ccc(/C=C/C(=O)NCCCCCCNc2c3c(nc4ccccc24)CCCC3)cc1
Reply | 6.1

Ask | Respond only with Selectivity index (SI) = BuChE IC50/AChE IC50 recorded for O=C(/C=C/c1ccccc1Cl)NCCCCCCNc1c2c(nc3ccccc13)CCCC2
Reply | 0.6

* * *

System Under Test: AChE (EC 3.1.1.7) from electric eel (Electrophorus electricus)
Construct: purchased Sigma-Aldrich C3389
Test Method Notes: biochemical
Applied Conditions: eqBuChE IC50 / eeAChE IC50
Experimental: AChE (EC 3.1.1.7, Type VI-S, from electric eel, C3389; from human, C1682) and BuChE (EC 3.1.1.8, from equine serum, C0663; from human, B4186), 5,5'-dithiobis (2-nitrobenzoic acid) (DTNB, D218200), acetylthiocholine iodide (ATC, A5751), and butyrylthiocholine iodide (BTC, B3253) were obtained from Sigma-Aldrich (St. Louis, MO). The inhibitory effects of the synthesised compounds in this paper were evaluated according to our previously reported method. […]
Entries annotated with measured Selectivity index (SI) = BuChE IC50/AChE IC50
Returns: the value as a bare number; no unit string appended.

Consider the reported Selectivity index (SI) = BuChE IC50/AChE IC50 for these molecules:
Structure String: Cc1ccccc1/C=C/C(=O)NCCCCCCNc1c2c(nc3ccccc13)CCCC2
Result Number: 0.2
//
Structure String: O=C(/C=C/c1cccc([N+](=O)[O-])c1)NCCCCCCNc1c2c(nc3ccccc13)CCCC2
Result Number: 1.9
//
Structure String: O=C(/C=C/c1ccc(Cl)cc1)NCCCCCCNc1c2c(nc3ccccc13)CCCC2
Result Number: 1.9
//
Structure String: O=C(C=Cc1ccccc1)NCCCCNc1c2c(nc3ccccc13)CCCC2
Result Number: 0.01
//
Structure String: O=C(/C=C/c1ccccc1)NCCCNc1c2c(nc3ccccc13)CCCC2
Result Number: 0.03
//
Structure String: O=C(/C=C/c1ccc(F)cc1)NCCCCCCNc1c2c(nc3ccccc13)CCCC2
Result Number: 4.3

Ask | Respond only with Selectivity index (SI) = BuChE IC50/AChE IC50 recorded for O=C(/C=C/c1ccc(Cl)c([N+](=O)[O-])c1)NCCCCCCNc1c2c(nc3ccccc13)CCCC2
Reply | 1.8

Ask | Respond only with Selectivity index (SI) = BuChE IC50/AChE IC50 recorded for Cc1ccc(/C=C/C(=O)NCCCCCCNc2c3c(nc4ccccc24)CCCC3)cc1
Reply | 2.5

* * *

System Under Test: AChE (EC 3.1.1.7) from electric eel (Electrophorus electricus, UniProt O42275)
Construct: purchased Sigma-Aldrich C3389
Test Method Notes: biochemical
Applied Conditions: eqBuChE IC50 / eeAChE IC50
Under this convention, met denotes Selectivity index (SI) = BuChE IC50/AChE IC50 strictly below 0.5 and not met denotes Selectivity index (SI) = BuChE IC50/AChE IC50 at or above 0.5.

See these solved cases before continuing.
Compound: COc1cc(/C=C/C(=O)NCCCCCCNc2c3c(nc4ccccc24)CCCC3)ccc1OCc1ccccc1 [Compound 36]
Class: met
//
Compound: O=C(/C=C/c1cccc(C(F)(F)F)c1)NCCCCCCNc1c2c(nc3ccccc13)CCCC2 [Compound 22]
Class: not met
//
Compound: O=C(/C=C/c1ccccc1[N+](=O)[O-])NCCCCCCNc1c2c(nc3ccccc13)CCCC2 [Compound 17]
Class: met

Ask | A record lists O=C(/C=C/c1ccccc1)NCCCCCCCCNc1c2c(nc3ccccc13)CCCC2 [Compound 13] . Is its Selectivity index (SI) = BuChE IC50/AChE IC50 below 0.5?
Reply | met

Ask | A record lists O=C(/C=C/c1ccc(Br)cc1)NCCCCCCNc1c2c(nc3ccccc13)CCCC2 [Compound 28] . Is its Selectivity index (SI) = BuChE IC50/AChE IC50 below 0.5?
Reply | not met

Ask | A record lists O=C(/C=C/c1ccccc1C(F)(F)F)NCCCCCCNc1c2c(nc3ccccc13)CCCC2 [Compound 21] . Is its Selectivity index (SI) = BuChE IC50/AChE IC50 below 0.5?
Reply | met

Ask | A record lists COc1ccc(/C=C/C(=O)NCCCCCCNc2c3c(nc4ccccc24)CCCC3)c(OC)c1OC [Compound 31] . Is its Selectivity index (SI) = BuChE IC50/AChE IC50 below 0.5?
Reply | met

Ask | A record lists O=C(C=Cc1ccccc1)NCCCCCCNc1c2c(nc3ccccc13)CCCC2 [Compound 12] . Is its Selectivity index (SI) = BuChE IC50/AChE IC50 below 0.5?
Reply | not met

Ask | A record lists O=C(/C=C/c1ccc(O)cc1)NCCCCCCNc1c2c(nc3ccccc13)CCCC2 [Compound 34] . Is its Selectivity index (SI) = BuChE IC50/AChE IC50 below 0.5?
Reply | not met

Ask | A record lists Cc1cccc(/C=C/C(=O)NCCCCCCNc2c3c(nc4ccccc24)CCCC3)c1 [Compound 15] . Is its Selectivity index (SI) = BuChE IC50/AChE IC50 below 0.5?
Reply | not met

* * *

Entries annotated with measured log10 IC50
System Under Test: AChE (EC 3.1.1.7) from electric eel (Electrophorus electricus)
Construct: purchased Sigma-Aldrich C3389
Test Method Notes: biochemical
Applied Conditions: AChE from electric eel; mean ± SEM of three experiments
log10 IC50, nM

Ask | Respond only with log10 IC50 recorded for O=C(/C=C/c1ccc(F)cc1)NCCCCCCNc1c2c(nc3ccccc13)CCCC2 [Compound 24]
Reply | 1.19

* * *

System Under Test: AChE (EC 3.1.1.7) from electric eel (Electrophorus electricus, UniProt O42275)
Construct: purchased Sigma-Aldrich C3389
Test Method Notes: biochemical
Applied Conditions: AChE from electric eel; mean ± SEM of three experiments
// map IC50 to label using interval 1 = under 8 nM, interval 2 = from 8 nM up to 30 nM, interval 3 = 30 nM and over

See these solved cases before continuing.
Structure String: O=C(/C=C/c1ccccc1Cl)NCCCCCCNc1c2c(nc3ccccc13)CCCC2
System Under Test: AChE (EC 3.1.1.7) from electric eel (Electrophorus electricus, UniProt O42275)
Class: interval 2
//
Structure String: O=C(/C=C/c1ccc([N+](=O)[O-])cc1)NCCCCCCNc1c2c(nc3ccccc13)CCCC2
System Under Test: AChE (EC 3.1.1.7) from electric eel (Electrophorus electricus, UniProt O42275)
Class: interval 1
//
Structure String: O=C(/C=C/c1cccc(Cl)c1)NCCCCCCNc1c2c(nc3ccccc13)CCCC2
System Under Test: AChE (EC 3.1.1.7) from electric eel (Electrophorus electricus, UniProt O42275)
Class: interval 2
//
Structure String: O=C(C=Cc1ccccc1)NCCCCCCNc1c2c(nc3ccccc13)CCCC2
System Under Test: AChE (EC 3.1.1.7) from electric eel (Electrophorus electricus, UniProt O42275)
Class: interval 2

Ask | For the record COc1cc(/C=C/C(=O)NCCCCCCNc2c3c(nc4ccccc24)CCCC3)ccc1OCc1ccccc1 , report the class its IC50 corresponds to.
Reply | interval 3

Ask | For the record Cc1cccc(/C=C/C(=O)NCCCCCCNc2c3c(nc4ccccc24)CCCC3)c1 , report the class its IC50 corresponds to.
Reply | interval 3

* * *

System Under Test: AChE (EC 3.1.1.7) from electric eel (Electrophorus electricus)
Construct: purchased Sigma-Aldrich C3389
Test Method Notes: biochemical
Applied Conditions: AChE from electric eel; mean ± SEM of three experiments
Reported Property: IC50
Show the value, then the unit it is measured in.

Structure String: O=C(/C=C/c1ccc(C(F)(F)F)cc1)NCCCCCCNc1c2c(nc3ccccc13)CCCC2
IC50: 8.1 nM

Structure String: COc1cc(/C=C/C(=O)NCCCCCCNc2c3c(nc4ccccc24)CCCC3)ccc1OCc1ccc(C)cc1
IC50: 128 nM

Structure String: O=C(/C=C/c1ccccc1)NCCNc1c2c(nc3ccccc13)CCCC2
IC50: 328 nM

Structure String: O=C(/C=C/c1ccccc1)NCCCNc1c2c(nc3ccccc13)CCCC2
IC50: 100 nM

Structure String: O=C(/C=C/c1ccc(Br)cc1)NCCCCCCNc1c2c(nc3ccccc13)CCCC2
IC50: 19.1 nM

Ask | Respond only with IC50 recorded for Cc1ccc(/C=C/C(=O)NCCCCCCNc2c3c(nc4ccccc24)CCCC3)cc1
Reply | 22 nM

Ask | Respond only with IC50 recorded for O=C(/C=C/c1ccccc1)NCCCCCCCCNc1c2c(nc3ccccc13)CCCC2
Reply | 22.8 nM

Ask | Respond only with IC50 recorded for Cc1ccccc1/C=C/C(=O)NCCCCCCNc1c2c(nc3ccccc13)CCCC2
Reply | 36 nM

Ask | Respond only with IC50 recorded for COc1ccc(/C=C/C(=O)NCCCCCCNc2c3c(nc4ccccc24)CCCC3)c(OC)c1OC
Reply | 24.1 nM

Ask | Respond only with IC50 recorded for O=C(C=Cc1ccccc1)NCCCCNc1c2c(nc3ccccc13)CCCC2
Reply | 209 nM

Ask | Respond only with IC50 recorded for O=C(/C=C/c1ccc(O)cc1)NCCCCCCNc1c2c(nc3ccccc13)CCCC2
Reply | 2.2 nM
